Listed molecules paired with reported pIC50
# target_desc: FAAH (Homo sapiens, UniProt O00519)
# assay_remarks: Assay Method 1: human FAAH assay (3H-anandamide hydrolysis in cell homogenate)
# Assay type: biochemical
# Parameters: expressed in transfected cells; host or cells: SK-N-MC cells stably transfected with human FAAH cDNA (G418 selection); alternatively T84 cell pellets
# recorded_conditions: read-out: Assay 1 IC50
# Description: A. Transfection of Cells with Human FAAH A 10-cm tissue culture dish with a confluent monolayer of SK-N-MC cells was split 2 days (d) prior to transfection. Using sterile technique, the media was removed and the cells were detached from the dish by the addition of trypsin. One fifth of the cells were then placed onto a new 10-cm dish. […] After 10 d, dishes were analyzed for surviving colonies of cells. […]
pIC50: −log10 of the molar value. Structures can show the parent of a compound that is named as a salt.
experimental_endpoint: pIC50

[
  {
    "molecule": "O=C(Nc1cccc2cn[nH]c12)N1CC2(CCN(Cc3cccc(Oc4ccc(Cl)cc4)c3)CC2)C1 [Example 68, trifluoroacetic acid salt]",
    "result": "< 5.00"
  },
  {
    "molecule": "Cn1cc(Br)c(NC(=O)N2CC3(CCN(Cc4cccc(Oc5ccc(Cl)cc5)c4)CC3)C2)n1 [Example 62, trifluoroacetic acid salt]",
    "result": "< 5.00"
  },
  {
    "molecule": "O=C(Nc1ncccn1)N1CC2(CCN(Cc3cccc(Oc4ccc(Cl)cc4)c3)CC2)C1 [Example 42, trifluoroacetic acid salt]",
    "result": "< 5.00"
  }
]

---

# target_desc: Rat FAAH (Rattus norvegicus)
# Construct: expressed in transfected cells; host or cells: SK-N-MC cells stably transfected with rat FAAH cDNA (G418 selection)
# Sequence (P97612 whole entry): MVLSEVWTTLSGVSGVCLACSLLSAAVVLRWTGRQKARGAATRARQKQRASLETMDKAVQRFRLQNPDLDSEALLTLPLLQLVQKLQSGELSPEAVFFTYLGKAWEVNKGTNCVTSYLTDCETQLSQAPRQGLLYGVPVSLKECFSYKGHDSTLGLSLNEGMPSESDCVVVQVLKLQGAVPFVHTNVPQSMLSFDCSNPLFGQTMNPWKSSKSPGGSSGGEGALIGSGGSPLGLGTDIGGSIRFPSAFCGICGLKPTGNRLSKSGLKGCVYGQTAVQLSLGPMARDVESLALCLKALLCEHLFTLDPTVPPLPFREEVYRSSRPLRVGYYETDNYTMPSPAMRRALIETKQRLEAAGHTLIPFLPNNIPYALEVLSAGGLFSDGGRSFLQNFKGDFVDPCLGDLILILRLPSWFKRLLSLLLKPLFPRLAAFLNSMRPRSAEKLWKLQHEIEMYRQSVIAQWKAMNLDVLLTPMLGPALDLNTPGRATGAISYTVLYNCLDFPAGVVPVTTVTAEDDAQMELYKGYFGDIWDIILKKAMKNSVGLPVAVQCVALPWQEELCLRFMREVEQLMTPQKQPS
# assay_remarks: Assay Method 2: rat FAAH assay (3H-anandamide hydrolysis in cell homogenate)
# Assay type: biochemical
# recorded_conditions: read-out: Assay 2 IC50
Counter-ions that a name gives are not always drawn.
Listed molecules paired with reported IC50

[
  {
    "molecule": "O=C(Nc1cnc2cccnn12)N1CC2(CCN(Cc3cccc(Oc4ccc(Cl)cc4)c3)CC2)C1",
    "IC50": "0.01 µM"
  },
  {
    "molecule": "O=C(Nc1nnn[nH]1)N1CC2(CCN(Cc3cccc(Oc4ccc(Cl)cc4)c3)CC2)C1 [Example 64, trifluoroacetic acid salt]",
    "IC50": "0.06 µM"
  },
  {
    "molecule": "Cc1nc2ccc(NC(=O)N3CC4(CCN(Cc5cccc(Oc6ccc(Cl)cc6)c5)CC4)C3)cc2s1 [Example 77, trifluoroacetic acid salt]",
    "IC50": "> 10 µM"
  },
  {
    "molecule": "O=C(Nc1ccc(-n2nccn2)nc1)N1CC2(CCN(Cc3cccc(Oc4ccc(Cl)cc4)c3)CC2)C1",
    "IC50": "0.02 µM"
  },
  {
    "molecule": "O=C(Nc1cccnc1)N1CC2(CCN(Cc3ccccc3O)CC2)C1",
    "IC50": "> 10 µM"
  }
]

---

Listed molecules paired with reported pIC50
# target_desc: UniProt:O00519
# Sequence (O00519 1-579): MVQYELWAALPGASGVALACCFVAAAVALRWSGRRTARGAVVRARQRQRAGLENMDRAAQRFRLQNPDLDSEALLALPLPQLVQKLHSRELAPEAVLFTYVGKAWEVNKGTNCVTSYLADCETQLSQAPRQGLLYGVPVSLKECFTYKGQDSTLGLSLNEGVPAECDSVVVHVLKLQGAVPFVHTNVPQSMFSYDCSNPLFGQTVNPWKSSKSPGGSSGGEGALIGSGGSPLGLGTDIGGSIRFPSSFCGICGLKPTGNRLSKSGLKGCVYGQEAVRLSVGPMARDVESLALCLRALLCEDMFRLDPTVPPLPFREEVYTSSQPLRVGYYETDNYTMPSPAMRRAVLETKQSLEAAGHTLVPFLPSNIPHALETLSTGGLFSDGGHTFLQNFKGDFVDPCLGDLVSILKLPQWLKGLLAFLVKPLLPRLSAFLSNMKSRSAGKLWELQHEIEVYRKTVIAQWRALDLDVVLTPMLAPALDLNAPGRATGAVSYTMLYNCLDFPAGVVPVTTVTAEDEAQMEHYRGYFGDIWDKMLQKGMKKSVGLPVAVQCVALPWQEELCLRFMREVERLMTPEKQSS
# assay_remarks: Assay Method 1: human FAAH assay (3H-anandamide hydrolysis in cell homogenate)
# Assay type: biochemical
# Set-up: expressed in transfected cells; host or cells: SK-N-MC cells stably transfected with human FAAH cDNA (G418 selection); alternatively T84 cell pellets
# recorded_conditions: read-out: Assay 1 IC50
pIC50: −log10 of the molar value. Where a name gives a salt, the structure may show the parent alone.
experimental_endpoint: pIC50

[
  {
    "molecule": "O=C(Nc1ccc2nccn2c1)N1CC2(CCN(Cc3cccc(Oc4ccc(Cl)cc4)c3)CC2)C1 [Example 69, trifluoroacetic acid salt]",
    "target_desc": "UniProt:O00519",
    "experimental_endpoint": "pIC50",
    "qualifier_symbol": "<",
    "recorded_number": 5.00
  },
  {
    "molecule": "O=C(Nc1cccnc1)N1CC2(CCN(Cc3ccc4ccccc4c3)CC2)C1",
    "target_desc": "UniProt:O00519",
    "experimental_endpoint": "pIC50",
    "qualifier_symbol": "=",
    "recorded_number": 5.60
  },
  {
    "molecule": "O=C(Nc1cccnc1)N1CC2(CCN(Cc3cccc(Oc4ccc(OC(F)(F)F)cc4)c3)CC2)C1",
    "target_desc": "UniProt:O00519",
    "experimental_endpoint": "pIC50",
    "qualifier_symbol": "=",
    "recorded_number": 5.59
  }
]
